TESTED_ON: Histone-lysine N-methyltransferase, H3 lysine-79 specific (Homo sapiens)
PROTOCOL: Inhibition of human N-terminal GST-tagged DOT1L (2 to 416 residues) expressed in Escherichia coli at 200 nM using DOT1L substrate measured after 2 hrs in presence of SAM by ELISA
Active and inactive are the calls of the source. The rule behind the calls is not given here.
Give your call using only these classes: true = active, false = inactive

Inquiry: Hi, sorry to bother you, what did the test record for O=C(NCC[Se][Se]CCNC(=O)/C(Cc1ccc(O)c(Br)c1)=N/O)/C(Cc1ccc(O)c(Br)c1)=N/O ?
Reply text: true

----------
Measured IC50 accompanies every entry in the list below.
System: HCT-116
PROTOCOL: Cytotoxicity against human HCT-116 cells assessed as reduction in cell viability by SRB assay
Type: functional, cell-based
Value expressed in nM; do not type the unit.

Some entries whose results are on file:
MOLECULE | IC50, nM
O=C(NCC[Se][Se]CCNC(=O)/C(Cc1ccc(O)c(Br)c1)=N/O)/C(Cc1ccc(O)c(Br)c1)=N/O | 10
O=C(NCC[Se][Se]CCNC(=O)/C(Cc1ccc(O)c(F)c1)=N/O)/C(Cc1ccc(O)c(F)c1)=N/O | 10
O=C(NCCSSCCNC(=O)/C(Cc1ccc(O)c(Br)c1)=N/O)/C(Cc1ccc(O)c(Br)c1)=N/O | 610
O=C(NCC[Se][Se]CCNC(=O)/C(Cc1ccc([N+](=O)[O-])cc1)=N/O)/C(Cc1ccc([N+](=O)[O-])cc1)=N/O | 90
O=C(NCC[Se][Se]CCNC(=O)/C(Cc1ccc(OCc2ccccc2)cc1)=N/O)/C(Cc1ccc(OCc2ccccc2)cc1)=N/O | 100
O=C(NCC[Se][Se]CCNC(=O)/C(Cc1ccc(Cl)c(Cl)c1)=N/O)/C(Cc1ccc(Cl)c(Cl)c1)=N/O | 520
O=C(NCC[Se][Se]CCNC(=O)/C(Cc1ccc2ccccc2c1)=N/O)/C(Cc1ccc2ccccc2c1)=N/O | 120
O=C(NCC[Se][Se]CCNC(=O)/C(Cc1ccccc1)=N/O)/C(Cc1ccccc1)=N/O | 90
O=C(NCC[Se][Se]CCNC(=O)/C(Cc1ccc(Cl)cc1)=N/O)/C(Cc1ccc(Cl)cc1)=N/O | 280
O=C(NCC[Se][Se]CCNC(=O)/C(Cc1ccc(O)c(Cl)c1)=N/O)/C(Cc1ccc(O)c(Cl)c1)=N/O | 10

Inquiry: // fetch IC50 given entry CCOc1ccc(C/C(=N\O)C(=O)NCC[Se][Se]CCNC(=O)/C(Cc2ccc(OCC)cc2)=N/O)cc1
Reply text: 70

Inquiry: // fetch IC50 given entry COc1cc([C@@H]2c3cc4c(cc3[C@@H](O[C@@H]3O[C@@H]5CO[C@@H](C)O[C@H]5[C@H](O)[C@H]3O)[C@H]3COC(=O)[C@H]23)OCO4)cc(OC)c1O [ETOPOSIDE]
Reply text: 1200

Inquiry: // fetch IC50 given entry O=C(NCC[Se][Se]CCNC(=O)/C(Cc1ccc(F)c(F)c1)=N/O)/C(Cc1ccc(F)c(F)c1)=N/O
Reply text: 180

Inquiry: // fetch IC50 given entry CC(C)(C)c1ccc(C/C(=N\O)C(=O)NCC[Se][Se]CCNC(=O)/C(Cc2ccc(C(C)(C)C)cc2)=N/O)cc1
Reply text: 130

Inquiry: // fetch IC50 given entry O=C(NCC[Se][Se]CCNC(=O)/C(Cc1ccc(F)cc1)=N/O)/C(Cc1ccc(F)cc1)=N/O
Reply text: 110

Inquiry: // fetch IC50 given entry O=C(NCC[Se][Se]CCNC(=O)/C(Cc1ccc(Br)cc1)=N/O)/C(Cc1ccc(Br)cc1)=N/O
Reply text: 170

----------
PROTOCOL: Selectivity ratio of IC50 for human MCF-10A cells to IC50 for human A549 cells
Assay type: toxicity
APPLIED_CONDITIONS: MCF-10A cells versus A549 cells, read-out: Ratio IC50
MEASURE_NAME: selectivity ratio

COMPOUND_STRING | selectivity ratio
O=C(NCC[Se][Se]CCNC(=O)/C(Cc1ccccc1)=N/O)/C(Cc1ccccc1)=N/O | > 100

Please find the next compound below.
Inquiry: // fetch selectivity ratio given entry O=C(NCC[Se][Se]CCNC(=O)/C(Cc1ccc(O)c(Br)c1)=N/O)/C(Cc1ccc(O)c(Br)c1)=N/O
Reply text: > 100

----------
Measured pIC50 accompanies every entry in the list below.
Tested on: MCF-10A
PROTOCOL: Cytotoxicity against human MCF-10A cells assessed as reduction in cell viability by SRB assay
Assay type: cell-based
Scale for pIC50: -log10 of concentration given in mol/L; no unit attached.

COMPOUND_STRING | pIC50
O=C(NCC[Se][Se]CCNC(=O)/C(Cc1ccccc1)=N/O)/C(Cc1ccccc1)=N/O | 4.74

Please find the next molecule below.
Inquiry: // fetch pIC50 given entry O=C(NCC[Se][Se]CCNC(=O)/C(Cc1ccc(O)c(Br)c1)=N/O)/C(Cc1ccc(O)c(Br)c1)=N/O
Reply text: 4.79

----------
PROTOCOL: Selectivity ratio of IC50 for human MCF-10A cells to IC50 for human HCT-116 cells
Assay type: toxicity
APPLIED_CONDITIONS: MCF-10A cells versus HCT-116 cells, read-out: Ratio IC50
Measured selectivity ratio accompanies every entry in the list below.

COMPOUND_STRING | MEASURE_NAME | OBS_VALUE
O=C(NCC[Se][Se]CCNC(=O)/C(Cc1ccccc1)=N/O)/C(Cc1ccccc1)=N/O | selectivity ratio | > 100

Please find the next compound below.
Inquiry: // fetch selectivity ratio given entry O=C(NCC[Se][Se]CCNC(=O)/C(Cc1ccc(O)c(Br)c1)=N/O)/C(Cc1ccc(O)c(Br)c1)=N/O
Reply text: > 100
